# target desc: Interleukin-2 (Homo sapiens)
# Sequence (P60568 whole entry): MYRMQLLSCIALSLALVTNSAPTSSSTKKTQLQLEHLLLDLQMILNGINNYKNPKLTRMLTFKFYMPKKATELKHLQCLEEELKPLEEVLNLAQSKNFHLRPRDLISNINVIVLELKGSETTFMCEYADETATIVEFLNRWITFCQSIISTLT
# assay text: Binding affinity to recombinant human IL-2 by SPR assay
pKd: −log10 of the molar value.
endpoint name: pKd

Past entries and their recorded results:
compound string: Cn1c(Cc2nn(C)c(=O)c3ccccc23)nnc1SCC(=O)Nc1ccc(Cl)cc1Cl
pKd: 4.98
--
compound string: Cn1c(Cc2nn(C)c(=O)c3ccccc23)nnc1SCCCCCCCC(=O)Nc1ccc(Cl)cc1Cl
pKd: 5.10
--
compound string: CCOC(=O)c1cccc(NC(=O)CCCCCCCSc2nnc(Cc3nn(C)c(=O)c4ccccc34)n2C)c1
pKd: 4.64
--
compound string: Cn1c(Cc2nn(C)c(=O)c3ccccc23)nnc1SCCCCCCCC(=O)Nc1ccc(Br)cc1Br
pKd: 5.00

P = COc1ccc(NC(=O)CCCCCCCSc2nnc(Cc3nn(C)c(=O)c4ccccc34)n2C)c(O)c1
Q = COc1ccc(NC(=O)CCCCCCCSc2nnc(Cc3nn(C)c(=O)c4ccccc34)n2C)c(OC)c1
Please compare: P and Q . Report which one has the smaller pKd value. Mark your selection by writing its label.
Q
